# credit: patent US20260166139A1

Molecular target: T1, CTLA4 antigen on the surface of 293F-CTLA4 host cells (UniProt P16410 36-223, limits assumed)
T1 construct: whole, on cells
T1 sequence (looked up): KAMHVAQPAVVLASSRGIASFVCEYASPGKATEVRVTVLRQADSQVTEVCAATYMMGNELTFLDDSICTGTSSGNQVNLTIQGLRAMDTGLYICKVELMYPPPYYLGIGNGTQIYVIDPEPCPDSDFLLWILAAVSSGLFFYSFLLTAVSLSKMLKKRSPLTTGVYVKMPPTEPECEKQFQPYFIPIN
Assay: flow cytometry, 293F-CTLA4 cells; antibody 5 nM
experimental endpoint: fluorescence intensity

Return reported fluorescence intensity; argument: humanized antibody 8D2H2L2 (antibody, V domains shown, also called 8D2H2L2(20150327); 8D2H2L2(20140422)) VH: EVQLVESGGGLVQPGGSMRLSCAASGFTFSDNWMNWVRQAPGKGLEWLAQIRNKPYNYETYYSASVKGRFTISRDDSKNSVYLQMNSLKTEDTGVYYCTAQFAYWGQGTLVTVSS VL: DIQMTQSPSSLSASVGDRVTITCRTSENIYGGLNWYQRKPGKSPKLLIYGATNLASGVSSRFSGSGSGTDYTLTISSLQPEDVATYYCQNVLRSPFTFGSGTKLEIK
972
